Reported inhibition values for the following compounds.
Molecular target: ALK tyrosine kinase receptor (Homo sapiens) (UniProt Q9UM73)
Sequence (Q9UM73 19-1620 limits assumed): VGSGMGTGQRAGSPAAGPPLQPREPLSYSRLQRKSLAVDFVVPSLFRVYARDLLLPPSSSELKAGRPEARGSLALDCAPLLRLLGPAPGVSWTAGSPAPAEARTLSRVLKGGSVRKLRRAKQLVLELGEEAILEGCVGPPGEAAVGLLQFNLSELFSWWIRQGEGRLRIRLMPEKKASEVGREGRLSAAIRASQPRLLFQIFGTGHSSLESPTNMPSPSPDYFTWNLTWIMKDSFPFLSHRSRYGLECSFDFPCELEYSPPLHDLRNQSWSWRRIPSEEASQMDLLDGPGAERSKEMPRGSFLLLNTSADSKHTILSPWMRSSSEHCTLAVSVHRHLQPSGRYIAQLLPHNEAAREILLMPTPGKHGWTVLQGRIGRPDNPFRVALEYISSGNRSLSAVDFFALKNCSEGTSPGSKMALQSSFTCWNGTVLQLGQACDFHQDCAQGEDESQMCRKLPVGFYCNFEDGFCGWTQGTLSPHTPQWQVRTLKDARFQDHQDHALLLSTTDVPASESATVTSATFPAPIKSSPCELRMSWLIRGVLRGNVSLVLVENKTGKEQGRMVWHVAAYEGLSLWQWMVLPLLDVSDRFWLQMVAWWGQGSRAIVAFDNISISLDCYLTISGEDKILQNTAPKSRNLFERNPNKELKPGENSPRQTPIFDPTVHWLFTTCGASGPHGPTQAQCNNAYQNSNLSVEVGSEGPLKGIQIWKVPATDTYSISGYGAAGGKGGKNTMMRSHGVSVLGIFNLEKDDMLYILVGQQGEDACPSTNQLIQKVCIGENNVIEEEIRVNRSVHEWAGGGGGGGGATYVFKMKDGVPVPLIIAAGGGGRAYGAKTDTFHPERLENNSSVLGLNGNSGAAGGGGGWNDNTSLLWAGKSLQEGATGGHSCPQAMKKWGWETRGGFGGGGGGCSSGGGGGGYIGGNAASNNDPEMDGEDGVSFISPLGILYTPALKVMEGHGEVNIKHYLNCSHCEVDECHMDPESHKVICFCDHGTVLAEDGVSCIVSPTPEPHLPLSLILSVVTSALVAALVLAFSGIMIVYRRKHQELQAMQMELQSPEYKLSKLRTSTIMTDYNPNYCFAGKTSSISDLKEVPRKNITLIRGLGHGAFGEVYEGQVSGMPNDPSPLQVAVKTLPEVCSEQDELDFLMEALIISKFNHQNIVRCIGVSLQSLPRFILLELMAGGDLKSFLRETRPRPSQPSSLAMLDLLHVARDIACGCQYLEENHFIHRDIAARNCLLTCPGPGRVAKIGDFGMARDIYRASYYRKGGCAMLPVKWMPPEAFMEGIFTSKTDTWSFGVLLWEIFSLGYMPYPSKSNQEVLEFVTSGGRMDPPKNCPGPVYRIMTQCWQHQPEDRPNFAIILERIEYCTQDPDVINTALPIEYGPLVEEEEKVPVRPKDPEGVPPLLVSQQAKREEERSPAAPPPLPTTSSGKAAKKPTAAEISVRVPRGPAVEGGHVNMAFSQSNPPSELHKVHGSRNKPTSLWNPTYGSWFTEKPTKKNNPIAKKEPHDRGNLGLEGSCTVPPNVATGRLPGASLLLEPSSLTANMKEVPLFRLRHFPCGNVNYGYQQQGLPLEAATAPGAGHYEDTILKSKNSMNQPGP
Settings: at 0.1 µM
Description: GSK_PKIS: ALK mean inhibition at 0.1 uM [Nanosyn]
readoutName: inhibition

- molecule: "Nc1nc(-c2ccc(F)cc2)c(-c2ccc3ncccc3n2)s1"
  observedResult: "3.27%"
- molecule: "COc1cc(/C=N/Nc2ncnc3[nH]ncc23)ccc1O"
  observedResult: "1.72%"
- molecule: "c1ccc(-c2nc3n(c2-c2ccc4c(c2)OCO4)CCC3)nc1"
  observedResult: "0.99%"
- molecule: "CCn1cc(-c2ccnc3[nH]ccc23)c(-c2cccc(NC(=O)Nc3ccc(OCc4ccccc4)cc3)c2)n1"
  observedResult: "0.6%"
- molecule: "COC(=O)c1sc(-n2cnc3cc(OC)c(OC)cc32)cc1OCc1ccccc1C(F)(F)F"
  observedResult: "3.59%"
- molecule: "CCNC(=O)O[C@H]1CN[C@H](C#Cc2cc3ncnc(Nc4ccc(OCc5cccc(F)c5)c(Cl)c4)c3s2)C1"
  observedResult: "1.85%"
- molecule: "Clc1ccc(-c2nn3ncccc3c2-c2ccnc(Nc3ccccc3)n2)cc1"
  observedResult: "2.8%"
- molecule: "COc1ccc(-c2oc3ncnc(N)c3c2-c2ccc(NC(=O)Nc3cc(C(F)(F)F)ccc3F)cc2)cc1"
  observedResult: "2.32%"
- molecule: "CNC(=O)c1cccc(C#Cc2cncnc2Nc2ccc(OCc3cccc(F)c3)c(Cl)c2)c1"
  observedResult: "1.88%"

###

Reported inhibition values for the following molecules.
Biological target: Serine/threonine-protein kinase D3 (Homo sapiens) (UniProt O94806);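 further: each value is the mean of inhibition readings, from a kinase profiling panel run on the GSK PKIS inhibitor collection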
Sequence (O94806 whole entry): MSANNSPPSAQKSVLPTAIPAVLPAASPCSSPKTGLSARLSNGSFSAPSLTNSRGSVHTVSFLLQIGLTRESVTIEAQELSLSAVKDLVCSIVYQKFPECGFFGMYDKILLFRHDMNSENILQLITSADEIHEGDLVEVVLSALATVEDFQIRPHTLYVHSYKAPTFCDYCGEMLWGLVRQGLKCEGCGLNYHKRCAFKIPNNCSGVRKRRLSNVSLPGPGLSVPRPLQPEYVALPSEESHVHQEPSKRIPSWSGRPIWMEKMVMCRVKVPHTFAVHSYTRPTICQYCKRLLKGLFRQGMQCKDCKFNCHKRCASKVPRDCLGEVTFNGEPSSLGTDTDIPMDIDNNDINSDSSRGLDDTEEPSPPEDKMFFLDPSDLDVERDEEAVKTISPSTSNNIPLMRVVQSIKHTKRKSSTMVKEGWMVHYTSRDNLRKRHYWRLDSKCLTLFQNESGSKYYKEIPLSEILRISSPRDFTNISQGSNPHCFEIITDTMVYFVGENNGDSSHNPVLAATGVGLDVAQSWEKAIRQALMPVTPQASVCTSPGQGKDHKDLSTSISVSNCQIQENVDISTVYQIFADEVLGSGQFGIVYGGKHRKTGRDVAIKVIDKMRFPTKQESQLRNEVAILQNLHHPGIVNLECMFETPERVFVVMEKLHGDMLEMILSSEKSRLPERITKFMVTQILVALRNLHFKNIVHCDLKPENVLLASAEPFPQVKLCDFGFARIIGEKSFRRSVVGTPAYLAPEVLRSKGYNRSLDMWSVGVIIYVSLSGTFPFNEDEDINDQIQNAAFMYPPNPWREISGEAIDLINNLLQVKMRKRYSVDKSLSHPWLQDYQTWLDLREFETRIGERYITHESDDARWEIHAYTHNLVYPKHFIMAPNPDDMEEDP
Conditions: at 0.1 µM

- molecule: "COc1ccc(-c2cc3c(N)ncnc3o2)cc1"
  inhibition [%]: -1.77
- molecule: "COc1cc(/C=N/Nc2ncnc3[nH]ncc23)ccc1O"
  inhibition [%]: 2.22
- molecule: "CNC(=O)c1cc(-c2ccc(F)cc2)cc(-c2ccc(S(=O)(=O)N3CCCC3)cc2)c1N"
  inhibition [%]: 3.24
- molecule: "Nc1ncc(-c2cccc(S(N)(=O)=O)c2)c2scc(-c3ccc(F)c(Cl)c3)c12"
  inhibition [%]: 6.03
- molecule: "COC(=O)Nc1nc2ccc(S(=O)(=O)c3ccc(NC(=O)Nc4cc(C(F)(F)F)ccc4F)cc3)cc2[nH]1"
  inhibition [%]: 3.18

###

Molecular target: Glycogen synthase kinase-3 beta (Homo sapiens) (UniProt P49841);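 further: values are mean percent inhibition of GSK3B activity, from the GSK Published Kinase Inhibitor Set (PKIS) screening dataset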
Sequence (P49841 whole entry, looked up): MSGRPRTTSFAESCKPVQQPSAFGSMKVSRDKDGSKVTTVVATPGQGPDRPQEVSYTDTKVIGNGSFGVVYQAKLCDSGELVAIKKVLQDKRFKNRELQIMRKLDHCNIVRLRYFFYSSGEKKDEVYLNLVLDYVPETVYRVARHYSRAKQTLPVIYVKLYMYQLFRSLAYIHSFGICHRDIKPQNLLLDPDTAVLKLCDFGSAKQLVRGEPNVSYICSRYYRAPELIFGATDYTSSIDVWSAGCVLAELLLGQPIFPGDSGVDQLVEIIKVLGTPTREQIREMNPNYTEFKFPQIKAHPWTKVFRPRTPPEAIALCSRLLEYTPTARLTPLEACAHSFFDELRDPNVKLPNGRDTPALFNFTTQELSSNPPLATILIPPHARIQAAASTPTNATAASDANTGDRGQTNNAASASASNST
Settings: at 0.1 µM
Reported inhibition values for the following compounds.
readoutName: inhibition (%)

- molecule: "CCN1CCC(CC(=O)Nc2n[nH]c3nnc(-c4cccc(F)c4F)cc23)CC1"
  observedResult: 85
- molecule: "COC(=O)Nc1nc2ccc(Oc3ccc(NC(=O)Nc4cccc(Cl)c4)cc3)cc2[nH]1"
  observedResult: 2.92
- molecule: "CCCN(CCS(C)(=O)=O)Cc1ccc(-c2ccc3ncnc(Nc4ccc(OCc5cccc(F)c5)c(Cl)c4)c3c2)o1"
  observedResult: 6.85
- molecule: "NC(=O)c1sc(-n2cnc3ccc(C(F)(F)F)cc32)cc1OCc1ccccc1Br"
  observedResult: -0.61
- molecule: "Fc1ccc(-c2cc(-c3c[nH]nc3-c3ccccn3)ccn2)cc1"
  observedResult: 1.39

###

Reported inhibition values for the following compounds.
Target: Insulin receptor-related protein (Homo sapiens) (UniProt P14616);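 further: each reported figure is the mean of the IRR inhibition readings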
Sequence (P14616 27-742 limits assumed): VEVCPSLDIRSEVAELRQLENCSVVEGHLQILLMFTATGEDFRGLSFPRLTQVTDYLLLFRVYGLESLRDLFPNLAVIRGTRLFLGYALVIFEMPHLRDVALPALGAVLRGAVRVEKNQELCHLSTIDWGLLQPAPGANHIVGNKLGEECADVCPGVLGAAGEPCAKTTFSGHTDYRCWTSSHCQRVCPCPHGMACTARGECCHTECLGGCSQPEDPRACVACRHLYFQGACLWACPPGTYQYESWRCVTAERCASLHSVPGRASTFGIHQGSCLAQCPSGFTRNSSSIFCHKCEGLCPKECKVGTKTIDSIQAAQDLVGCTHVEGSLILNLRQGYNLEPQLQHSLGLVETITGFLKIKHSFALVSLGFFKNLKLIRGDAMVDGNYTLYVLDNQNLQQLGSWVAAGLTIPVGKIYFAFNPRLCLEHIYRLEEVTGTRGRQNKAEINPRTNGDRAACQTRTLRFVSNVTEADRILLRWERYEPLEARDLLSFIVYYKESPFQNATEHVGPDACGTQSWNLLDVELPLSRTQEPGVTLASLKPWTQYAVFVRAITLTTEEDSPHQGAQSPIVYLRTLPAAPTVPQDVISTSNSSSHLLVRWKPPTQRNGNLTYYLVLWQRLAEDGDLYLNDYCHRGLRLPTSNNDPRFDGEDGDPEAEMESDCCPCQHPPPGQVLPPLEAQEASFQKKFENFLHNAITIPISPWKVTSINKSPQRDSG
Sequence (P14616 747-1297 limits assumed): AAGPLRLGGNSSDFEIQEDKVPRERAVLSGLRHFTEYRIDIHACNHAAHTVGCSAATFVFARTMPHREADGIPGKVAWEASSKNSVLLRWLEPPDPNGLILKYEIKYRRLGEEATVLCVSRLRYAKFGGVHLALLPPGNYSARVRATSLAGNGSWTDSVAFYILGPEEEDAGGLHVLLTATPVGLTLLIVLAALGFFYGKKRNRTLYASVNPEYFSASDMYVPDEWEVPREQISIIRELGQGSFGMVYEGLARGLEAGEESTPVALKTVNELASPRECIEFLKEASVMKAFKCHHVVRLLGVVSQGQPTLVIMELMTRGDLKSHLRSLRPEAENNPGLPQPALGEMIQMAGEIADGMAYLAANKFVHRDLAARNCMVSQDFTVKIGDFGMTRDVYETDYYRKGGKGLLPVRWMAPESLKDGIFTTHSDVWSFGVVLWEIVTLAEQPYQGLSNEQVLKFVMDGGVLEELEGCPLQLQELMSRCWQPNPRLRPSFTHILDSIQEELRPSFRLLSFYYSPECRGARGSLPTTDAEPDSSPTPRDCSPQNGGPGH
Conditions: at 1 µM
readoutName: inhibition (%)

- compound: "Nc1nc(-c2ccc(F)cc2)c(-c2ccc3ncccc3n2)s1"
  targetOfAssay: "Insulin receptor-related protein (Homo sapiens) (UniProt P14616)"
  observedResult: 1.87
- compound: "CC(C)COC(=O)c1ccc2c(c1)/C(=C/Nc1ccc(S(N)(=O)=O)cc1)C(=O)N2"
  targetOfAssay: "Insulin receptor-related protein (Homo sapiens) (UniProt P14616)"
  observedResult: 0.22
- compound: "c1ccc(COc2ccc(Nc3ncnc4ccc(-c5ccco5)cc34)cc2)cc1"
  targetOfAssay: "Insulin receptor-related protein (Homo sapiens) (UniProt P14616)"
  observedResult: 0.28
- compound: "CN(C)CCOc1ccc(-c2nc(-c3ccncc3)c(-c3ccc4c(c3)CC/C4=N\\O)[nH]2)cc1"
  targetOfAssay: "Insulin receptor-related protein (Homo sapiens) (UniProt P14616)"
  observedResult: 3.86
- compound: "c1ccc(-c2nc3n(c2-c2ccc4c(c2)OCO4)CCC3)nc1"
  targetOfAssay: "Insulin receptor-related protein (Homo sapiens) (UniProt P14616)"
  observedResult: 1.11
- compound: "Fc1ccc(-c2cc(-c3c[nH]nc3-c3ccccn3)ccn2)cc1"
  targetOfAssay: "Insulin receptor-related protein (Homo sapiens) (UniProt P14616)"
  observedResult: 2.16
- compound: "COC(=O)Nc1nc2ccc(S(=O)(=O)c3ccc(NC(=O)Nc4cc(C(F)(F)F)ccc4F)cc3)cc2[nH]1"
  targetOfAssay: "Insulin receptor-related protein (Homo sapiens) (UniProt P14616)"
  observedResult: 1.09
- compound: "CN1CCC(n2cnc(-c3ccc(F)cc3)c2-c2ccnc(N)n2)CC1"
  targetOfAssay: "Insulin receptor-related protein (Homo sapiens) (UniProt P14616)"
  observedResult: 1.43
- compound: "CNC(=O)c1cccc(C#Cc2cncnc2Nc2ccc(OCc3cccc(F)c3)c(Cl)c2)c1"
  targetOfAssay: "Insulin receptor-related protein (Homo sapiens) (UniProt P14616)"
  observedResult: 0.96
- compound: "Nc1nc(-c2cccc(Cl)c2)c(-c2ccc3ncccc3n2)s1"
  targetOfAssay: "Insulin receptor-related protein (Homo sapiens) (UniProt P14616)"
  observedResult: 4.52
- compound: "Nc1ncc(-c2cccc(S(N)(=O)=O)c2)c2scc(-c3ccc(F)c(Cl)c3)c12"
  targetOfAssay: "Insulin receptor-related protein (Homo sapiens) (UniProt P14616)"
  observedResult: 4.45
- compound: "Cc1ccc2c(-c3ccnc(Nc4ccccc4)n3)c(-c3ccc(F)cc3)nn2n1"
  targetOfAssay: "Insulin receptor-related protein (Homo sapiens) (UniProt P14616)"
  observedResult: 2.61
- compound: "NC(=O)c1sc(-n2cnc3ccc(C(F)(F)F)cc32)cc1OCc1ccccc1Br"
  targetOfAssay: "Insulin receptor-related protein (Homo sapiens) (UniProt P14616)"
  observedResult: 0.64
- compound: "COc1cccc(-n2ncc3c(N/N=C/c4ccc(F)cc4)ncnc32)c1"
  targetOfAssay: "Insulin receptor-related protein (Homo sapiens) (UniProt P14616)"
  observedResult: 2.32
- compound: "CCn1cc(-c2ccnc3[nH]ccc23)c(-c2cccc(NC(=O)Nc3ccc(OCc4ccccc4)cc3)c2)n1"
  targetOfAssay: "Insulin receptor-related protein (Homo sapiens) (UniProt P14616)"
  observedResult: -1.26
- compound: "Cc1ccc(O)cc1Nc1ccnc2cc(-c3ccccn3)ccc12"
  targetOfAssay: "Insulin receptor-related protein (Homo sapiens) (UniProt P14616)"
  observedResult: 3.66
- compound: "CCn1c(-c2nonc2N)nc2c(C#CC(C)(C)O)nc(OC[C@H](N)c3ccccc3)cc21"
  targetOfAssay: "Insulin receptor-related protein (Homo sapiens) (UniProt P14616)"
  observedResult: 2.71
- compound: "Fc1ccc(-c2nn3ncccc3c2-c2ccnc(Nc3ccc4c(c3)OCCO4)n2)cc1"
  targetOfAssay: "Insulin receptor-related protein (Homo sapiens) (UniProt P14616)"
  observedResult: 1.61
- compound: "CNC(=O)c1cc(-c2ccc(F)cc2)cc(-c2ccc(S(=O)(=O)N3CCCC3)cc2)c1N"
  targetOfAssay: "Insulin receptor-related protein (Homo sapiens) (UniProt P14616)"
  observedResult: 1.33
- compound: "N#Cc1c(NC(=O)CN2CCOCC2)sc2c1CCCC2"
  targetOfAssay: "Insulin receptor-related protein (Homo sapiens) (UniProt P14616)"
  observedResult: 3.5
- compound: "COc1cc2ncn(-c3cc(OCc4ccccc4C(F)(F)F)c(C(=O)N(C)C)s3)c2cc1OC"
  targetOfAssay: "Insulin receptor-related protein (Homo sapiens) (UniProt P14616)"
  observedResult: -0.76
- compound: "COc1ccc(-c2cc3c(N)ncnc3o2)cc1"
  targetOfAssay: "Insulin receptor-related protein (Homo sapiens) (UniProt P14616)"
  observedResult: -2.2
- compound: "CCOc1ccc2c(-c3ccnc(Nc4cccc(C(F)(F)F)c4)n3)cnn2n1"
  targetOfAssay: "Insulin receptor-related protein (Homo sapiens) (UniProt P14616)"
  observedResult: 1
- compound: "O=S(=O)(CCNCc1ccc(-c2ccc3ncnc(Nc4ccc(OCc5cccc(F)c5)c(Cl)c4)c3c2)o1)c1ccccc1"
  targetOfAssay: "Insulin receptor-related protein (Homo sapiens) (UniProt P14616)"
  observedResult: 4.07
- compound: "COc1cc(Nc2nccc(Nc3ccc4c(C)n[nH]c4c3)n2)cc(OC)c1OC"
  targetOfAssay: "Insulin receptor-related protein (Homo sapiens) (UniProt P14616)"
  observedResult: 3.74
- compound: "O=C(Nc1n[nH]c2cc(-c3ccc(F)cc3)ccc12)C1CC1"
  targetOfAssay: "Insulin receptor-related protein (Homo sapiens) (UniProt P14616)"
  observedResult: 1.45
- compound: "CS(=O)(=O)CCNCc1ccc(-c2ccc3ncnc(Nc4ccc(OCc5ccccc5)c(C(F)(F)F)c4)c3c2)o1"
  targetOfAssay: "Insulin receptor-related protein (Homo sapiens) (UniProt P14616)"
  observedResult: 2.56
- compound: "Fc1cccc(COc2ccc(Nc3ncnc4sc(-c5ccco5)cc34)cc2Cl)c1"
  targetOfAssay: "Insulin receptor-related protein (Homo sapiens) (UniProt P14616)"
  observedResult: 2.84
- compound: "COc1ccc(CNC(=O)c2ccc(-c3cc(-c4nnc(C)o4)ccc3C)cc2)cc1"
  targetOfAssay: "Insulin receptor-related protein (Homo sapiens) (UniProt P14616)"
  observedResult: 0.52
- compound: "COC(=O)c1sc(-n2cnc3cc(OC)c(OC)cc32)cc1OCc1ccccc1C(F)(F)F"
  targetOfAssay: "Insulin receptor-related protein (Homo sapiens) (UniProt P14616)"
  observedResult: -0.14
- compound: "CS(=O)(=O)CCNCc1coc(-c2ccc3ncnc(Nc4ccc(OCc5ccccc5)cc4)c3c2)c1"
  targetOfAssay: "Insulin receptor-related protein (Homo sapiens) (UniProt P14616)"
  observedResult: 3.03
- compound: "CCCN(CCS(C)(=O)=O)Cc1ccc(-c2ccc3ncnc(Nc4ccc(OCc5cccc(F)c5)c(Cl)c4)c3c2)o1"
  targetOfAssay: "Insulin receptor-related protein (Homo sapiens) (UniProt P14616)"
  observedResult: 1.54
- compound: "COc1cccc(-c2c[nH]c3c(N/N=C/c4ccncc4)ncnc23)c1"
  targetOfAssay: "Insulin receptor-related protein (Homo sapiens) (UniProt P14616)"
  observedResult: 2.79
- compound: "CCN(CC)S(=O)(=O)c1ccc(OC)c(Nc2ncc(-c3ccccc3)o2)c1"
  targetOfAssay: "Insulin receptor-related protein (Homo sapiens) (UniProt P14616)"
  observedResult: 0.72
- compound: "CC1=C(C(=O)Nc2cc(Cl)c3[nH]ncc3c2)C(c2ccc(C(F)(F)F)cc2)CC(=O)N1 (stereo not given)"
  targetOfAssay: "Insulin receptor-related protein (Homo sapiens) (UniProt P14616)"
  observedResult: 1.79

Each recorded value in this set is attributed to ChEMBL document CHEMBL1961873.
